- measurement_target: D816V Kit (Homo sapiens, UniProt P10721, D816V)
- Sequence (P10721 26-976 D816V): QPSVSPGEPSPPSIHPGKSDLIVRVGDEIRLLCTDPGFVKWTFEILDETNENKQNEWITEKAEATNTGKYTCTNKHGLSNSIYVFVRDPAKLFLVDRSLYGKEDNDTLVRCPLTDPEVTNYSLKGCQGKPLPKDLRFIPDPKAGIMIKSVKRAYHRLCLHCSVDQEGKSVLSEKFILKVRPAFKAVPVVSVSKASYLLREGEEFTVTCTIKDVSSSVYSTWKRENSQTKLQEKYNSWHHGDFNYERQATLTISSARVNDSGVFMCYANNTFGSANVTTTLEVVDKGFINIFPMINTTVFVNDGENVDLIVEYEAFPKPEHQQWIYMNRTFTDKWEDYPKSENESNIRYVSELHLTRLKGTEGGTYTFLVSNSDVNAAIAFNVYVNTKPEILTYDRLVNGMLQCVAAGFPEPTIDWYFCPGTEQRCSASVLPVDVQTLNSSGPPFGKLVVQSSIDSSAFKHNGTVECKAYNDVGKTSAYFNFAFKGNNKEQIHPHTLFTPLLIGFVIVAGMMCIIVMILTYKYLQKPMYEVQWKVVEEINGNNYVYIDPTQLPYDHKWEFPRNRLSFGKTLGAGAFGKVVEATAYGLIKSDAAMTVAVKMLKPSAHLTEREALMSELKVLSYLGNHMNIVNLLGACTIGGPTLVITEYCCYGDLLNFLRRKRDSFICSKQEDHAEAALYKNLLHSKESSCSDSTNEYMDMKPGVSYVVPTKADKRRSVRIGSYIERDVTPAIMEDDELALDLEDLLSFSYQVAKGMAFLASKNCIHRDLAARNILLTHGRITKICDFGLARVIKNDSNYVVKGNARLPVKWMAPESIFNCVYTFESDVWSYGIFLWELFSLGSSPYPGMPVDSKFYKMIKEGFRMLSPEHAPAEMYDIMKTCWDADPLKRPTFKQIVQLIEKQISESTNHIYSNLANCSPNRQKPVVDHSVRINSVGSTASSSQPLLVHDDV
- experiment: Kit D816V assay at Km (Caliper electrophoretic mobility shift)
- study_conditions: D816V Kit 0.5 nM, 15 uM ATP (Km), 1 uM Srctide, 25 C, 90 minutes; read-out: Biochemical Activity D816V IC50
assay_metric: IC50

{"chemical_string": "Cn1cc(-c2cc3c(-c4ccc(NC(=O)Cc5ccc(Cl)nc5)cc4)ncnn3c2)cn1", "IC50": "1.01 to 10 nM"}

## Input Using D816V Kit (Homo sapiens, UniProt P10721, D816V) as the test system, report measured IC50 of `Cn1cc(-c2cc3c(-c4ccc(NS(=O)(=O)c5ccc(Cl)cc5)cc4)ncnn3c2)cn1` .
## Output < 1 nM

## Input Provide D816V Kit (Homo sapiens, UniProt P10721, D816V) IC50 reading for `Cn1cc(-c2cc3c(-c4ccc(NC(=O)Cc5cccc(Cl)c5)cc4)ncnn3c2)cn1` .
## Output 1.01 to 10 nM

## Input Give measured IC50 for `Cn1cc(-c2cc3c(-c4ccc(NC(=O)Cc5ccc(Cl)cc5)cc4)ncnn3c2)cn1` (D816V Kit (Homo sapiens, UniProt P10721, D816V)).
## Output 1.01 to 10 nM

====

- measurement_target: Kit D816V in HMC1.2 cells (Homo sapiens, UniProt P10721, D816V/V560G)
- Construct: endogenous in cells
- Sequence (P10721 26-976 V560G/D816V): as the sequence (P10721 26-976 D816V) above, with V535G counted along it
- experiment: HMC1.2 autophosphorylation assay (Kit autophosphorylation at tyrosine 719, AlphaLISA)
- study_conditions: HMC1.2 mast cell leukemia cells (Kit V560G and D816V), phospho-Y719 c-Kit, 90 minutes; read-out: Cellular Activity IC50
Each entry below carries its recorded IC50.

# example entries with known answers
{"molecule": "Cn1cc(-c2cc3c(-c4ccc(NS(=O)(=O)c5ccccc5)cc4)ncnn3c2)cn1", "assay_metric": "IC50", "endpoint_result": "100 to 1000 nM"}
{"molecule": "CCOC(=O)N1CC=C(c2cc3c(-c4ccc(NS(=O)(=O)c5ccc(Cl)cc5)cc4)ncnn3c2)CC1", "assay_metric": "IC50", "endpoint_result": "10 to 100 nM"}
{"molecule": "Cc1ccc(S(=O)(=O)Nc2ccc(-c3ncnn4cc(-c5cnn(C)c5)cc34)cc2)cc1", "assay_metric": "IC50", "endpoint_result": "10 to 100 nM"}
{"molecule": "Cn1cc(CC(=O)Nc2ccc(-c3ncnn4cc(-c5cnn(C)c5)cc34)cc2)cn1", "assay_metric": "IC50", "endpoint_result": "1000 to 10000 nM"}
{"molecule": "Cn1cc(-c2cc3c(-c4ccc(NC(=O)[C@@](C)(N)c5ccc(Cl)cc5)cc4)ncnn3c2)cn1", "assay_metric": "IC50", "endpoint_result": "< 10 nM"}
{"molecule": "Cn1cc(-c2cc3c(-c4ccc(NC(=O)C(C)(O)c5ccc(Cl)cc5)cc4)ncnn3c2)cn1 (stereo not shown)", "assay_metric": "IC50", "endpoint_result": "10 to 100 nM"}
{"molecule": "CCC(=O)N1CC=C(c2cc3c(-c4ccc(NS(=O)(=O)c5ccc(Cl)cc5)cc4)ncnn3c2)CC1", "assay_metric": "IC50", "endpoint_result": "10 to 100 nM"}
{"molecule": "Cn1cc(-c2cc3c(-c4ccc(NC(=O)C(O)c5ccc(Cl)cc5)cc4)ncnn3c2)cn1 (stereo not shown)", "assay_metric": "IC50", "endpoint_result": "< 10 nM"}

## Input Write down IC50 measured for item `CC(C)Oc1ccc(-c2cc3c(-c4ccc(NS(=O)(=O)c5ccc(Cl)cc5)cc4)ncnn3c2)cc1`
## Output 1000 to 10000 nM

## Input Report IC50, nothing else, for this molecule: `Cn1cc(-c2cc3c(-c4ccc(NC(=O)Cc5ccc(Cl)cc5)cc4)ncnn3c2)cn1`
## Output 10 to 100 nM

## Input Output IC50 of `Cn1cc(-c2cc3c(-c4ccc(NS(=O)(=O)c5ccc(Cl)cc5)cc4F)ncnn3c2)cn1`
## Output 100 to 1000 nM

## Input Output IC50 of `Cn1cc(-c2cc3c(-c4ccc(NC(=O)Cc5ccc(Cl)cc5Cl)cc4)ncnn3c2)cn1`
## Output < 10 nM

## Input Give IC50 for the following molecule: `CC(C)(C)Oc1ccc(-c2cc3c(-c4ccc(NC(=O)Cc5ccc(Cl)cc5)cc4)ncnn3c2)cc1`
## Output 1000 to 10000 nM

## Input Answer with the recorded IC50 of `Cn1cc(-c2cc3c(-c4ccc(NC(=O)Cc5c[nH]c6ccccc56)cc4)ncnn3c2)cn1` only.
## Output 10 to 100 nM

## Input Quote IC50 reported for `Cn1cc(-c2cc3c(-c4ccc(NC(=O)C5(c6ccc(Cl)cc6)CC5)cc4)ncnn3c2)cn1` please.
## Output 100 to 1000 nM

## Input Please list IC50 recorded for the molecule `CN(C)C(=O)c1ccc(-c2cc3c(-c4ccc(NS(C)(=O)=O)cc4)ncnn3c2)cc1`
## Output 100 to 1000 nM

====

List of IC50 values.
- measurement_target: D816V Kit (Homo sapiens, UniProt P10721, D816V)
- experiment: Kit D816V assay at Km (Caliper electrophoretic mobility shift)
- study_conditions: D816V Kit 0.5 nM, 15 uM ATP (Km), 1 uM Srctide, 25 C, 90 minutes; read-out: Biochemical Activity D816V IC50

{"molecule": "C[C@@H](C(=O)Nc1ccc(-c2ncnn3cc(-c4cnn(C)c4)cc23)cc1)c1ccc(Cl)cc1", "measurement_target": "D816V Kit (Homo sapiens, UniProt P10721, D816V)", "endpoint_result": "1.01 to 10 nM"}
{"molecule": "Cn1cc(CC(=O)Nc2ccc(-c3ncnn4cc(-c5cnn(C)c5)cc34)cc2)cn1", "measurement_target": "D816V Kit (Homo sapiens, UniProt P10721, D816V)", "endpoint_result": "10 to 100 nM"}

## Input Specify reported IC50 for the molecule shown: `CC(C)S(=O)(=O)Nc1ccc(-c2ncnn3cc(-c4cnn(C)c4)cc23)cc1`
## Output 10 to 100 nM

## Input Fill in reported IC50 for this entry: `O=C(c1ccc(-c2cc3c(-c4ccc(NS(=O)(=O)c5ccc(Cl)cc5)cc4)ncnn3c2)cc1)N1CCC1`
## Output > 100 nM

## Input For `CC[C@H](C(=O)Nc1ccc(-c2ncnn3cc(-c4cnn(C)c4)cc23)cc1)c1ccc(Cl)cc1` , write its IC50.
## Output 10 to 100 nM

## Input Give a short answer stating reported IC50 for `Cn1cc(-c2cc3c(-c4ccc(NC(=O)Cc5ccccc5Cl)cc4)ncnn3c2)cn1` .
## Output 1.01 to 10 nM

## Input Please look at this molecule and report its IC50: `Cn1cc(-c2cc3c(-c4ccc(NC(=O)[C@@H](O)c5ccc(Cl)cc5)cc4)ncnn3c2)cn1`
## Output 1.01 to 10 nM

## Input Give the measured IC50 for Cn1cc(-c2cc3c(-c4ccc(NC(=O)C(O)c5ccccc5)cc4)ncnn3c2)cn1 (stereo not drawn)
## Output < 1 nM

====

- measurement_target: D816V Kit (Homo sapiens, UniProt P10721, D816V)
- experiment: Kit D816V assay at Km (Caliper electrophoretic mobility shift)
- study_conditions: D816V Kit 0.5 nM, 15 uM ATP (Km), 1 uM Srctide, 25 C, 90 minutes; read-out: Biochemical Activity D816V IC50
pIC50: −log10 of the molar value.
assay_metric: pIC50

Example entries begin here.
{"molecule": "Cn1cc(-c2cc3c(-c4ccc(NC(=O)Nc5ccc(Cl)cc5)cc4)ncnn3c2)cn1 [Compound 21]", "assay_metric": "pIC50", "endpoint_result": "< 7.00"}
{"molecule": "Cn1cc(-c2cc3c(-c4ccc(NS(=O)(=O)c5ccccc5)cc4)ncnn3c2)cn1 [Compound 13]", "assay_metric": "pIC50", "endpoint_result": "8.00 to 9.00"}

## Input Provide measured pIC50 value, entry: CC(C)(O)Cn1cc(-c2cc3c(-c4ccc(NC(=O)Cc5ccc(Cl)cc5)cc4)ncnn3c2)cn1 [Compound 60]
## Output 8.00 to 9.00

## Input Output measured pIC50 for this item: Cn1cc(-c2cc3c(-c4ccc(NS(=O)(=O)c5cccc(Cl)c5)cc4)ncnn3c2)cn1 [Compound 37]
## Output 7.00 to 8.00

## Input Recall and state the measured pIC50 for Cc1ccc(S(=O)(=O)Nc2ccc(-c3ncnn4cc(-c5cnn(C)c5)cc34)cc2)cc1 [Compound 22] .
## Output 8.00 to 9.00

## Input Using the record for Cn1cc(-c2cc3c(-c4ccc(NS(=O)(=O)c5ccc(C#N)cc5)cc4)ncnn3c2)cn1 [Compound 26] , state its measured pIC50.
## Output 8.00 to 9.00

## Input Please indicate pIC50 recorded for Cn1cc(-c2cc3c(-c4ccc(NS(=O)(=O)c5ccccc5Cl)cc4)ncnn3c2)cn1 [Compound 38]
## Output 7.00 to 8.00

## Input Give the measured pIC50 for O=C(Cc1ccc(Cl)cc1)Nc1ccc(-c2ncnn3cc(-c4ccc(F)cc4)cc23)cc1 [Compound 27]
## Output 7.00 to 8.00

FYI, the data here is from patent US10000496B2.
